Below are pIC50 values recorded for SARS-CoV 3CLpro (Severe acute respiratory syndrome coronavirus).
Keep in mind that pIC50 stands for -log10 of concentration in molar terms.

Solved entries:
INSERT INTO measurements (chem_smiles, quantitative_readout) VALUES
  ('CC(C)(C)[C@H](NC(=O)[C@@H]1CC1(F)F)C(=O)N1C[C@H](C(F)(F)F)C[C@H]1C(=O)NN(C[C@@H]1CCNC1=O)C(=O)[C@H](F)Cl', 7.77),
  ('CCC(C)(C)[C@H](NC(=O)C(F)F)C(=O)N1C[C@H]2[C@@H]([C@H]1C(=O)NN(C[C@@H]1CCNC1=O)C(=O)[C@H](F)Cl)C2(C)C', 7.82);

# input for lookup
Param item: `CC1(C)[C@@H]2[C@@H](C(=O)NN(C[C@@H]3CCNC3=O)C(=O)[C@H](F)Cl)N(C(=O)[C@H](Cc3ccncc3)NC(=O)C(F)(F)F)C[C@@H]21` ; param system: SARS-CoV 3CLpro (Severe acute respiratory syndrome coronavirus); output pIC50: 7.85

----------
molecular target: HCoV-229E 3CLpro (Human coronavirus 229E, UniProt P0C6X1)
Sequence (P0C6X1 2966-3267): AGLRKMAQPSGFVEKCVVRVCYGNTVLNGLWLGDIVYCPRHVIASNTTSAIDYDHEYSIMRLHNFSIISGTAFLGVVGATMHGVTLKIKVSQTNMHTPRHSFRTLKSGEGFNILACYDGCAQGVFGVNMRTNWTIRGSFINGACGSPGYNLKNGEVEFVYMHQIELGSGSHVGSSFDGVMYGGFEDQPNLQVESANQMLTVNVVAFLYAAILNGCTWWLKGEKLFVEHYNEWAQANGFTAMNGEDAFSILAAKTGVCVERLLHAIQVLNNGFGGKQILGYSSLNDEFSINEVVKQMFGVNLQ
Overview of recorded IC50 for various molecules
Entry rule: numbers only, all in nM.

Solved entries:
INSERT INTO assay_data (chem_smiles, result_type, quantitative_readout) VALUES
  ('CC(C)(F)C(=O)N[C@H](C(=O)N1C[C@@H]2CCC[C@@H]2[C@H]1C(=O)NN(C[C@@H]1CCNC1=O)C(=O)[C@H](F)Cl)C(C)(C)C', 'IC50', 23),
  ('CCC(C)(C)[C@H](NC(=O)C(F)F)C(=O)N1C[C@@H]2CCC[C@@H]2[C@H]1C(=O)NN(C[C@@H]1CCCNC1=O)C(=O)[C@H](F)Cl', 'IC50', 37),
  ('CC(C)(C)[C@H](NC(=O)C(F)(F)C(F)(F)F)C(=O)N1C[C@H]2[C@@H]([C@H]1C(=O)NN(C[C@@H]1CCNC1=O)C(=O)[C@H](F)Cl)C2(C)C', 'IC50', 76);

Short answer for `CC[C@@H](C)[C@H](NC(=O)[C@@H](C)F)C(=O)N1C[C@H]2[C@@H]([C@H]1C(=O)NN(C[C@@H]1CCNC1=O)C(=O)[C@H](F)Cl)C2(C)C` : IC50 was 36

Short answer for `CC(C)(C)[C@H](NC(=O)C1CC1)C(=O)N1C[C@@H]2CCC[C@@H]2[C@H]1C(=O)NN(C[C@@H]1CCNC1=O)C(=O)[C@H](F)Cl` : IC50 was 28

----------
target: SARS-CoV-2 3CLpro (Severe acute respiratory syndrome coronavirus 2, UniProt P0DTD1); assay: biochemical
Overview of recorded IC50 for various molecules
Entry rule: numbers only, all in nM.

INSERT INTO results (molecule, assayed_target, quantitative_readout) VALUES
  ('C[C@@H]1C[C@@H](C(=O)NN(C[C@@H]2CCNC2=O)C(=O)[C@H](F)Cl)N(C(=O)[C@@H](NC(=O)C(F)(F)F)C(C)(C)C)C1 [Example 7]', 'SARS-CoV-2 3CLpro (Severe acute respiratory syndrome coronavirus 2, UniProt P0DTD1)', 8),
  ('CC(C)(C)[C@H](NC(=O)C1CC(F)(F)C1)C(=O)N1C[C@H]2[C@@H]([C@H]1C(=O)NN(C[C@@H]1CCNC1=O)C(=O)[C@H](F)Cl)C2(C)C [Example 90]', 'SARS-CoV-2 3CLpro (Severe acute respiratory syndrome coronavirus 2, UniProt P0DTD1)', 10),
  ('CCC[C@H](NC(=O)C(F)(F)F)C(=O)N1C[C@@H]2CCC[C@@H]2[C@H]1C(=O)NN(C[C@@H]1CCNC1=O)C(=O)[C@H](F)Cl [Example 78]', 'SARS-CoV-2 3CLpro (Severe acute respiratory syndrome coronavirus 2, UniProt P0DTD1)', 9),
  ('CC[C@@H](C)[C@H](NC(=O)C(C)(F)F)C(=O)N1C[C@@H]2CCC[C@@H]2[C@H]1C(=O)NN(C[C@@H]1CCNC1=O)C(=O)[C@H](F)Cl [Example 76]', 'SARS-CoV-2 3CLpro (Severe acute respiratory syndrome coronavirus 2, UniProt P0DTD1)', 8);

# input for lookup
Short answer for CC[C@@H](C)[C@H](NC(=O)[C@@H](C)F)C(=O)N1C[C@H]2[C@@H]([C@H]1C(=O)NN(C[C@@H]1CCNC1=O)C(=O)[C@H](F)Cl)C2(C)C [Example 116] : IC50 was 14

----------
biological target: SARS-CoV-2 3CLpro (Severe acute respiratory syndrome coronavirus 2, UniProt P0DTD1); assay: biochemical
// returns condition not met unless IC50 is strictly below 20 nM, in which case condition met

Example results:
INSERT INTO results (compound, class_label) VALUES
  ('CCC(C)(C)[C@H](NC(=O)C1CC1)C(=O)N1C[C@@H]2CCC[C@@H]2[C@H]1C(=O)NN(C[C@H]1CCCNC1=O)C(=O)[C@H](F)Cl [Example 167b]', 'condition met'),
  ('CCC(CC)[C@H](NC(=O)C1CC1)C(=O)N1C[C@@H]2CCC[C@@H]2[C@H]1C(=O)NN(C[C@@H]1CCCNC1=O)C(=O)[C@H](F)Cl [Example 171a]', 'condition met'),
  ('CC1(C)[C@@H]2[C@@H](C(=O)NN(C[C@@H]3CCNC3=O)C(=O)[C@@H](F)Cl)N(C(=O)[C@@H](NC(=O)C3(F)CC3)C3CCC3)C[C@@H]21', 'condition not met'),
  ('CC[C@H](C)[C@H](NC(=O)C(F)F)C(=O)N1C[C@H]2[C@@H]([C@H]1C(=O)NN(C[C@@H]1CCNC1=O)C(=O)[C@H](F)Cl)C2(C)C', 'condition met');

-- ask Field: below-cutoff. Rule: recorded IC50 strictly less than 20 nM. Subject: `CC(C)C[C@H](NC(=O)C(F)(F)F)C(=O)N1C[C@H]2[C@@H]([C@H]1C(=O)NN(C[C@@H]1CCNC1=O)C(=O)[C@H](F)Cl)C2(C)C`
-- reply condition met

-- ask Field: below-cutoff. Rule: recorded IC50 strictly less than 20 nM. Subject: O=C1NCC[C@H]1CN(NC(=O)[C@@H]1[C@H]2CCC[C@H]2CN1C(=O)COc1cccc(F)c1)C(=O)[C@H](F)Cl [Example 88a]
-- reply condition not met

----------
target: SARS-CoV-2 3CLpro (Severe acute respiratory syndrome coronavirus 2); assay: biochemical
Overview of recorded pIC50 for various molecules
Keep in mind that pIC50 stands for -log10 of concentration in molar terms.

Solved entries:
INSERT INTO results (molecule, quantitative_readout) VALUES
  ('CC(C)(C)[C@H](NC(=O)C(F)(F)F)C(=O)N1C[C@H](C(F)(F)F)C[C@H]1C(=O)NN(C[C@@H]1CCNC1=O)C(=O)[C@H](F)Cl', 8.05),
  ('CC[C@H](C)[C@H](NC(=O)[C@H](F)Cl)C(=O)N1C[C@@H]2CCC[C@@H]2[C@H]1C(=O)NN(C[C@@H]1CCCNC1=O)C(=O)[C@H](F)Cl', 8.10),
  ('CC(C)(C)[C@H](NC(=O)C(F)(F)F)C(=O)N1CCC(C)(C)[C@@H]1C(=O)NN(C[C@@H]1CCNC1=O)C(=O)[C@H](F)Cl [Example 155b]', 5.80),
  ('CC[C@@H](C)[C@H](NC(=O)C1CC1)C(=O)N1C[C@H]2[C@@H]([C@H]1C(=O)NN(C[C@@H]1CCNC1=O)C(=O)[C@H](F)Cl)C2(C)C', 7.89),
  ('CC[C@H](NC(=O)C(F)(F)F)C(=O)N1C[C@@H]2CCC[C@@H]2[C@H]1C(=O)NN(C[C@@H]1CCNC1=O)C(=O)[C@H](F)Cl', 8.10);

# input for lookup
Short answer for `CC(F)(F)C(=O)N[C@H](C(=O)N1C[C@H]2[C@@H]([C@H]1C(=O)NN(C[C@@H]1CCNC1=O)C(=O)[C@@H](F)Cl)C2(C)C)C(C)(C)C` : pIC50 was 7.92

----------
target: SARS-CoV 3CLpro (Severe acute respiratory syndrome coronavirus)
result_type: log10 of IC50 (log10 of the value in nM)
Recorded IC50 (log10, nM)

Solved entries:
INSERT INTO assay_data (molecule, quantitative_readout) VALUES
  ('CC(C)(C)[C@H](NC(=O)C(F)(F)F)C(=O)N1CCC(C)(C)[C@@H]1C(=O)NN(C[C@@H]1CCNC1=O)C(=O)[C@H](F)Cl [Example 155b]', 3.39),
  ('CC[C@H](C)[C@H](NC(=O)C1(F)CC1)C(=O)N1C[C@H]2[C@@H]([C@H]1C(=O)NN(C[C@@H]1CCNC1=O)C(=O)[C@@H](F)Cl)C2(C)C', 1.76),
  ('CC[C@H](C)[C@H](NC(=O)C(F)(F)F)C(=O)N1C[C@H]2[C@@H]([C@H]1C(=O)NN(C[C@@H]1CCNC1=O)C(=O)[C@@H](F)Cl)C2(C)C', 1.40),
  ('CCC(C)(C)[C@H](NC(=O)C(F)F)C(=O)N1C[C@@H]2CCC[C@@H]2[C@H]1C(=O)NN(C[C@@H]1CCCNC1=O)C(=O)[C@H](F)Cl', 1.18),
  ('CC[C@H](C)[C@H](NC(=O)C1(F)CCC1)C(=O)N1C[C@H]2[C@@H]([C@H]1C(=O)NN(C[C@@H]1CCNC1=O)C(=O)[C@H](F)Cl)C2(C)C', 1.04);

Short answer for `CCC(CC)[C@H](NC(=O)C1CC(F)(F)C1)C(=O)N1C[C@@H]2CCC[C@@H]2[C@H]1C(=O)NN(C[C@@H]1CCNC1=O)C(=O)[C@H](F)Cl` : log10 of IC50 was 1.15

Short answer for `CCC(C)(C)[C@H](NC(=O)C(F)(F)F)C(=O)N1C[C@H]2[C@@H]([C@H]1C(=O)NN(C[C@@H]1CCNC1=O)C(=O)[C@H](F)Cl)C2(C)C` : log10 of IC50 was 1.28

Short answer for `CC(C)(C)[C@H](NC(=O)[C@@H]1CC1(F)F)C(=O)N1C[C@@H]2CCC[C@@H]2[C@H]1C(=O)NN(C[C@@H]1CCNC1=O)C(=O)[C@H](F)Cl` : log10 of IC50 was 1.08

Short answer for CCC(C)(C)[C@H](NC(=O)C1CC1)C(=O)N1C[C@@H]2CCC[C@@H]2[C@H]1C(=O)NN(C[C@H]1CCCNC1=O)C(=O)[C@H](F)Cl [Example 167b] : log10 of IC50 was 1.61

Short answer for `CC[C@H](C)[C@H](NC(=O)C(F)F)C(=O)N1C[C@@H]2CCC[C@@H]2[C@H]1C(=O)NN(C[C@@H]1CCNC1=O)C(=O)[C@@H](F)Cl` : log10 of IC50 was 1.08

Short answer for `CCC(C)(C)[C@H](NC(=O)C1(F)CC1)C(=O)N1CC(C)(C)C[C@H]1C(=O)NN(C[C@@H]1CCNC1=O)C(=O)[C@H](F)Cl` : log10 of IC50 was 1.32
